tested-target: Cellular tumor antigen p53 (Homo sapiens)
test-protocol: TOX21_p53_BLA_p4_ratio: Tox21 HCT-116 p53 Agonism Beta-lactamase Assay, Ratio, Phase 4 (AID 2283601)
Records with an inconclusive call do not appear. Activity calls are given as the source filed them. Rule for the calls: active = hit-call score of the fitted dose curve at least 0.9, where 1 is the maximum; inconclusive = response in the unintended direction; inactive = score below 0.9.
value-type: outcome

Take a look at these entries with their results.
- NC(=O)c1ccccc1[N+](=O)[O-]: inactive
- NS(=O)(=O)c1ccc(C(=O)O)cc1: inactive
- O=[N+]([O-])c1cc(Cl)c(Cl)c(Cl)c1Cl: inactive
- CC1(C)O[C@@H]2C[C@H]3[C@@H]4CCC5=CC(=O)CC[C@]5(C)[C@@]4(F)[C@@H](O)C[C@]3(C)[C@]2(C(=O)CCl)O1: inactive
- CN(C)CCC=C1c2ccccc2C=Cc2ccccc21: inactive

QUERY: Bench note: what outcome did Nc1ccc(Cl)cc1[N+](=O)[O-] show?
RESULT: inactive

QUERY: Bench note: what outcome did CCCCCCCCCCCCCCC1CO1 (configuration not stated) show?
RESULT: inactive

QUERY: Bench note: what outcome did O=C(CCN1CCC(c2ccccc2)C1)c1ccc2c(c1)OCCO2 (configuration not stated) show?
RESULT: inactive

QUERY: Bench note: what outcome did O=C(O)[C@H]1/C(=C/CO)O[C@@H]2CC(=O)N21 show?
RESULT: inactive

QUERY: Bench note: what outcome did c1ccc(SCCSc2ccccc2)cc1 show?
RESULT: inactive

QUERY: Bench note: what outcome did COc1cc(S(C)=O)ccc1-c1nc2ncccc2[nH]1 (configuration not stated) show?
RESULT: inactive

QUERY: Bench note: what outcome did CC(C(=O)O)c1ccc(CC2CCCC2=O)cc1 (configuration not stated) show?
RESULT: inactive
